test_target: FGF14 (Homo sapiens, UniProt Q92915)
Construct: aa 64–252); 6X His (N); made in house; host or cells: E. coli BL21 (DE3) pLys
Sequence (Q92915 64-252 isoform Q92915-2): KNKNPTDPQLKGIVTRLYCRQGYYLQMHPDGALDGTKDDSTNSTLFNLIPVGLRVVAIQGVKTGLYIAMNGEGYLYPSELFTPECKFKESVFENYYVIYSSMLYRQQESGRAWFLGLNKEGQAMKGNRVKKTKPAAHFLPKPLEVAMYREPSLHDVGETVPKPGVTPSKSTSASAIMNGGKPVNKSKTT
protocol_description: SPR binding to FGF14
condition_context: Biacore T100, CM5, 25°C, peptide 1–100 µM; read-out: KD, equilibrium constant
pKd: −log10 of the molar value. Peptide text beside a SMILES is read from it.

| molecule | pKd |
| --- | --- |
| CC(=O)N[C@@H](Cc1ccccc1)C(=O)N[C@@H](CC(C)C)C(=O)N1CCC[C@H]1C(=O)N[C@@H](CCCCN)C(N)=O [FLPK] (Ac-FLPK-NH2) | 5.30 |

* * *

test_target: FGF14:Nav1.6 complex (Homo sapiens, UniProt Q92915)
Sequence (Q92915 1-252 isoform Q92915-2): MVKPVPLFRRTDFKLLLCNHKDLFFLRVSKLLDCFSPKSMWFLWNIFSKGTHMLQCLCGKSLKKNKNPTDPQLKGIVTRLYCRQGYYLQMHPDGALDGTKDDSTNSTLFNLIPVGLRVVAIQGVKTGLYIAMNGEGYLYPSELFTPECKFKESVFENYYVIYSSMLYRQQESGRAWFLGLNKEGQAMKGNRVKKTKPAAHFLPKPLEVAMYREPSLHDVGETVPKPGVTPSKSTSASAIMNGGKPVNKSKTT
protocol_description: Split-luciferase complementation assay (LCA), CLuc-FGF14 wild type
condition_context: HEK293 cells, FLPK 1, 10, 25, 50, 75, 100, 150, 250 µM; luminescence normalized to DMSO; apparent IC50; read-out: IC50, inhibition of FGF14:Nav1.6 complex formation
Peptide text beside a SMILES is read from it.

| molecule | IC50 [µM] |
| --- | --- |
| CC(=O)N[C@@H](Cc1ccccc1)C(=O)N[C@@H](CC(C)C)C(=O)N1CCC[C@H]1C(=O)N[C@@H](CCCCN)C(N)=O [FLPK] (Ac-FLPK-NH2) | 58 |
